Data credit: patent US12162890B2

The following molecules are listed with their measured Response Recovered (%) values.
# Tested system: HEK293 cells with stable expression of the GRIN1 gene and tetracycline-inducible expression of the GRIN2B gene (NMDA receptor, NR2B) (Homo sapiens, UniProt Q13224)
# Sequence (Q13224 27-1484, other chains not shown): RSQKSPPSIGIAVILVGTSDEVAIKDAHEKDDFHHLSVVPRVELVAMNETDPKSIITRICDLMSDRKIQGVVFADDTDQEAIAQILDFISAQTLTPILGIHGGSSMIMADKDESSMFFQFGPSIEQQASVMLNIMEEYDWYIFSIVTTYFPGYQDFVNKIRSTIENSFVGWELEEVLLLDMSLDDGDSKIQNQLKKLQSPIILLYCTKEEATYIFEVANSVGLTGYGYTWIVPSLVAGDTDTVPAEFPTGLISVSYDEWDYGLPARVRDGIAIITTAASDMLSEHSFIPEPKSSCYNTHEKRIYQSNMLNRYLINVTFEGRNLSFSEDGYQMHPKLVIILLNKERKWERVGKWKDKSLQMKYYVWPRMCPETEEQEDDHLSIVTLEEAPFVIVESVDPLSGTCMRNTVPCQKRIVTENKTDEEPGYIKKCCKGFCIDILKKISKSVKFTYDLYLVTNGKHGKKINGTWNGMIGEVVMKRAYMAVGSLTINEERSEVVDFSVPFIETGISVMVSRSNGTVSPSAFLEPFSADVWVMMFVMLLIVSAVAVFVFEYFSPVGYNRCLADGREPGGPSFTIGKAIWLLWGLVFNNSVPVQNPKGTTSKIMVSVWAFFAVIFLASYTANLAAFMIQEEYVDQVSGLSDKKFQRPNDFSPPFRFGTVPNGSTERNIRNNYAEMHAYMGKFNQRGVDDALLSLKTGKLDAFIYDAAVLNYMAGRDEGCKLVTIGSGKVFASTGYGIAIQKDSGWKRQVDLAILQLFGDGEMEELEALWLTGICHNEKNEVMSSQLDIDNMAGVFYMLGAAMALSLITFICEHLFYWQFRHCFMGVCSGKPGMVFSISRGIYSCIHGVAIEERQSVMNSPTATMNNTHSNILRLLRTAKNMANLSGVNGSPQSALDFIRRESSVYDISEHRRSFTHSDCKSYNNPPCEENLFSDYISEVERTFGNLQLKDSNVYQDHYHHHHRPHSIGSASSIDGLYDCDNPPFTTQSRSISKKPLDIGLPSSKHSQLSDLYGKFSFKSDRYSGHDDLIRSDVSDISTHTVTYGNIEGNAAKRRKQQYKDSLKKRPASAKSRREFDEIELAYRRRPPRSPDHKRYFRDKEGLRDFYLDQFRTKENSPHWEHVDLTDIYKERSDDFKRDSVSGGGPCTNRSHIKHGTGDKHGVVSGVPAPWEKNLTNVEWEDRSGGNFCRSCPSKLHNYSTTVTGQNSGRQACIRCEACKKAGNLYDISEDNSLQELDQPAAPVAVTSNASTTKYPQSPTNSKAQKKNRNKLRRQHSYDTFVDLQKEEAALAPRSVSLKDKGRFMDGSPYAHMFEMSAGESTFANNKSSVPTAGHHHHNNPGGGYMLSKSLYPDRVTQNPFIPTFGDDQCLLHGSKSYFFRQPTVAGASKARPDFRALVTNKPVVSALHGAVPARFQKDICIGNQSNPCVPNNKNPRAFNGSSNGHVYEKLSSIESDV
# Measurement protocol: Fluo-8 Ca2+ flux assay: reversal of Ro 25-6981-mediated suppression of the Ca2+ response to co-agonist (glutamate/glycine); further: test concentration or dose not given here
# Assay type: cell-based
# Setup conditions: reversal of the Ro 25-6981 suppression of the Ca2+ response to co-agonist (glutamate/glycine)
Measurement kind: Response Recovered (%)

Molecule | Measurement kind | Value observed
Cn1cc(-c2ccc(Cl)c(F)c2)c2c(=O)n(CC(=O)N3CCCC3)cnc21 [Example 165] | Response Recovered (%) | 25
O=C(Cn1cnc2[nH]cc(-c3ccc(F)c(Cl)c3)c2c1=O)N1CCCC1 [Example 156] | Response Recovered (%) | 36
CCn1cc(-c2ccc(Cl)c(F)c2)c2c(=O)n(CC(=O)N3CC(F)(F)C3)cnc21 [Example 171] | Response Recovered (%) | 15
O=C(Cn1ccn2ccc(-c3ccc(F)c(Cl)c3)c2c1=O)N1CC(F)(CF)C1 [Example 402] | Response Recovered (%) | 130
Cc1ncc(-c2csc3ccn(CC(=O)N4CC(C)(F)C4)c(=O)c23)cc1Cl [Example 90] | Response Recovered (%) | 75
O=C(Cn1ncc2scc(-c3ccc(Cl)c(F)c3)c2c1=O)N1CCCC1 [Example 336] | Response Recovered (%) | 3
Cn1cc(-c2ccc(Cl)c(Cl)c2)c2c(=O)n(CC(=O)N3CCC(F)C3)ccc21 (centres unmarked) [Example 250] | Response Recovered (%) | 62
O=C(Cn1ccc2scc(-c3ccc(Cl)c(Cl)c3)c2c1=O)N1CC(F)(C2CC2)C1 [Example 49] | Response Recovered (%) | 26
O=C(Cn1cc(Br)c2scc(-c3ccc(Cl)c(C(F)(F)F)c3)c2c1=O)N1CCCC1 [Example 98] | Response Recovered (%) | 40
O=C(Cn1cnc2cccc(-c3ccc(Cl)cc3)c2c1=O)N1CC(F)(F)C1 [Example 296] | Response Recovered (%) | 9
O=C(Cn1cnc2csc(-c3ccc(Cl)cc3)c2c1=O)N1CCCCC1 [Example 350] | Response Recovered (%) | 0
O=C(Cn1ccc2c(c(-c3ccc(F)c(Cl)c3)cn2-c2ccncn2)c1=O)N1CCC(F)C1 (centres unmarked) [Example 248] | Response Recovered (%) | 59
Cc1nnc(-n2cc(-c3ccc(F)c(Cl)c3)c3c(=O)n(CC(=O)N4CCC(F)C4)ccc32)o1 (centres unmarked) [Example 264] | Response Recovered (%) | 49
O=C(Cn1ccc2ccc(-c3ccc(Cl)c(C(F)(F)F)c3)cc2c1=O)N1CC(F)(F)C1 [Example 312] | Response Recovered (%) | 3
O=C(Cn1ccc2scc(-c3ccc(F)c(Cl)c3)c2c1=O)N1CC2C(C1)C2(F)F (centres unmarked) [Example 65] | Response Recovered (%) | 13
O=C(Cn1ccc2scc(-c3ccc(Cl)c(F)c3)c2c1=O)N1CC(F)(F)C1 [Example 6] | Response Recovered (%) | 41
O=C(Cn1ccc2c(c(-c3ccc(F)c(C(F)(F)F)c3)cn2C2CC2)c1=O)N1CCC(F)C1 (centres unmarked) [Example 231] | Response Recovered (%) | 90
